- ASSAY_SYSTEM: DNA topoisomerase 2-alpha (Homo sapiens) (UniProt P11388)
- Sequence (P11388 whole entry): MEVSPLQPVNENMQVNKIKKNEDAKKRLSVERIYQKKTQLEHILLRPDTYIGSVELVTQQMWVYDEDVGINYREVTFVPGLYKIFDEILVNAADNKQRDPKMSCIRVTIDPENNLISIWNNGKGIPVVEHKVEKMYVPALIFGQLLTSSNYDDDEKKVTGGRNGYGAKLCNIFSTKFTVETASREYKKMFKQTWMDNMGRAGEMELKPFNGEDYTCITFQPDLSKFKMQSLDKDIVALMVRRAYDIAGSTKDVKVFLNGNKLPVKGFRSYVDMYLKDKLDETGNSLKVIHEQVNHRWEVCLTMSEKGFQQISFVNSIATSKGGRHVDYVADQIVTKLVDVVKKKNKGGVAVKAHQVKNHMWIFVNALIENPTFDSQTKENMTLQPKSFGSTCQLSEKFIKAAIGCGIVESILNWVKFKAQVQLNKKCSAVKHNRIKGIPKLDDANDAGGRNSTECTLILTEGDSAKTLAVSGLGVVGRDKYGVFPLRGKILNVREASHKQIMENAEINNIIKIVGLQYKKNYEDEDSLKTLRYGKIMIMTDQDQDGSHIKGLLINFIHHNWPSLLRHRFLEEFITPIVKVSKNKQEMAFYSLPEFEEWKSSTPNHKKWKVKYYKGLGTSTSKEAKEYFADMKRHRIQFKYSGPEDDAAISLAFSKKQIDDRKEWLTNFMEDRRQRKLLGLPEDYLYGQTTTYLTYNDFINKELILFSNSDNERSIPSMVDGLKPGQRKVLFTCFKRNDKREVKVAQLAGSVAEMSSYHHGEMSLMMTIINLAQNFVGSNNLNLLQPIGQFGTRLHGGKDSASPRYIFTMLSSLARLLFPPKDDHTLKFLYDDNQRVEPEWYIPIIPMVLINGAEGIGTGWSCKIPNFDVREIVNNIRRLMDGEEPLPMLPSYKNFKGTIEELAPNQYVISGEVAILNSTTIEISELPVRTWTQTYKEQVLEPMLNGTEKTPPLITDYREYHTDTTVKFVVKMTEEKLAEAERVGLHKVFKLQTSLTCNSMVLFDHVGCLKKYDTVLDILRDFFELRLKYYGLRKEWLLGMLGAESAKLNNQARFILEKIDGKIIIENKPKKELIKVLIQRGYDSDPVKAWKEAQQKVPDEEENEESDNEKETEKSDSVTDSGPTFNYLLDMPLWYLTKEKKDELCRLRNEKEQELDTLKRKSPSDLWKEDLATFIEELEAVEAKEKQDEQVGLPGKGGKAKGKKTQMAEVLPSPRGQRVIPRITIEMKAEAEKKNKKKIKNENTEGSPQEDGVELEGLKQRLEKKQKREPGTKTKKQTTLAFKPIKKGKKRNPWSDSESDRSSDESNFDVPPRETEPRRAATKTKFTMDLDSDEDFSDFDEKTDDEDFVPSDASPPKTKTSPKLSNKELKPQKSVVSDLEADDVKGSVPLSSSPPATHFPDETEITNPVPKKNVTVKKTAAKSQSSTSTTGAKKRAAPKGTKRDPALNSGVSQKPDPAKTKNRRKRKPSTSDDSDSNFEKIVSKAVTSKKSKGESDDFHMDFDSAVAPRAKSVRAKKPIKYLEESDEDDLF
- ASSAY_PROCEDURE: Inhibition of human recombinant topoisomerase-2 alpha assessed as conversion of super-coiled plasmid DNA pBR322 to relaxed DNA at 100 uM after 30 mins by ethidium bromide staining-based agarose gel electrophoresis (reference value: 87.8%)
Overview of reported inhibition across a group of compounds:
PROPERTY: inhibition (%)

1) c1ccc(-c2cc(-c3cccs3)nc3c2Cc2ccccc2-3)cc1 56
2) c1csc(-c2cc(-c3ccsc3)c3c(n2)-c2ccccc2C3)c1 100
3) c1ccc(-c2cc(-c3ccsc3)c3c(n2)-c2ccccc2C3)nc1 15
4) c1csc(-c2cc(-c3cccs3)c3c(n2)-c2ccccc2C3)c1 9.8
5) c1coc(-c2cc(-c3ccoc3)c3c(n2)-c2ccccc2C3)c1 100
6) c1csc(-c2cc(-c3ccsc3)nc3c2Cc2ccccc2-3)c1 17.8
7) c1ccc(-c2cc(-c3ccco3)nc3c2Cc2ccccc2-3)nc1 100
8) c1ccc2c(c1)Cc1c(-c3ccsc3)cc(-c3ccsc3)nc1-2 100
9) c1ccc(-c2cc(-c3ccsc3)nc3c2Cc2ccccc2-3)cc1 72.5
10) c1ccc(-c2cc(-c3ccsc3)nc3c2Cc2ccccc2-3)nc1 3.2
11) c1ccc(-c2cc(-c3cccs3)nc3c2Cc2ccccc2-3)nc1 18.1
